Experimental Protocol: qHTS assay to test for compound auto fluorescence at 535 nm (green) in HepG2 cell free culture (AID 720686); note: % is set by controls: 0 for no effect and ±100 for the full control effect
Assay Context: Cell-free medium, green autofluorescence 485/535 nm; series mostly up to 91.3 µM
The source made the active and inactive calls. Calls come from the whole dose curve; as a rule, active = well fitted curve in the direction sought with a large enough effect in the repeat runs; inconclusive = weak or mixed curves; inactive = flat fitted curve, though single readings scatter.
Assay Endpoint: fluorescence, % of fluorescein control

Reference set (4 entries):
NC(CS)C(=O)O (stereo not drawn)    inactive
CCO[Si](CCCN=C=O)(OCC)OCC    inactive
Cc1c(C)n(CCN(C)C)c2ccc(C(=O)OCCN(C)C)cc12    inactive
O=C(O)/C=C/c1ccc(Cn2ccnc2)cc1    -0.0119% [at 18.6 µM] (inactive)

[Q] Given the compound `CC(C)(C)OC(=O)N1C[C@@H](F)C[C@H]1C(=O)O` , write its reported fluorescence, % of fluorescein control.
[A] inactive

[Q] Given `CCCC(=O)O[C@]1(C(=O)CCl)[C@@H](C)C[C@H]2[C@@H]3CCC4=CC(=O)C=C[C@]4(C)[C@@]3(F)C(=O)C[C@@]21C` , respond with its fluorescence, % of fluorescein control.
[A] inactive

[Q] Return value of fluorescence, % of fluorescein control for input `NS(=O)(=O)c1cc2c(cc1Cl)NC(CSCc1ccccc1)=NS2(=O)=O` , no commentary.
[A] -0.0451% [at 18.6 µM] (inactive)

[Q] Give recorded fluorescence, % of fluorescein control. `C=C(C)[C@H]1CC=C(C)CC1`
[A] inactive

[Q] Tell me its fluorescence, % of fluorescein control given `N#CCc1ccccc1[N+](=O)[O-]` as the entry.
[A] inactive

[Q] # return recorded fluorescence, % of fluorescein control for entry C=CCOCC(O)CS(=O)(=O)O (stereo not drawn)
[A] inactive

[Q] In one line, give reported fluorescence, % of fluorescein control of the entry `NC(=O)Nc1nc2ccccc2[nH]1` .
[A] inactive

[Q] Give reported fluorescence, % of fluorescein control value for `O=C(O)c1ccccc1S`
[A] inactive

[Q] Check the records and state fluorescence, % of fluorescein control for `CCOC(=O)[C@H](CCc1ccccc1)N[C@@H](C)C(=O)N1CCC[C@H]1C(=O)O`
[A] inactive

---

Experimental Protocol: qHTS RealTime-Glo MT Cell Viability Assay in HEK293 cells - 40 hour (AID 1224874); note: % is set by controls: 0 for no effect and ±100 for the full control effect; nearly all actives have a fitted effect of over 50% in size
Assay Context: RealTime-Glo luminescence; hits give low values
Excerpt: U.S. Tox21 Program National Center for Advancing Translational Sciences [NCATS] NIH Chemical Genomics Center [NCGC] U.S. Environmental Protection Agency [EPA] National Institutes of Environmental Health Sciences [NIEHS] National Toxicology Program [NTP] U.S. Food and Drug Administration [FDA] Tox21 Assay Overview: Measure of cell viability is critical in the cell-base assay. Analysis of cell viability is necessary for the characterization of cell responses to cytotoxic drugs and environmental stress. […]
Results filed as inconclusive are left out.
Catalogue of max response readings, one per entry.
// return numeric value only (unit: %, not printed)

Worked cases, max response given:
CC1=CC(=O)CCC1    -3.69
[O-][N+](=Nc1ccccc1)c1ccccc1    -1.34
CC/C=C\C#N    20.1
CCO[Si](CCCN=C=O)(OCC)OCC    0.0382
CC(=O)OC(C)(C)C    8.31
CC(=O)N[C@@H](CCC(N)=O)C(=O)O    -1.52
CCCCCC[C@@H](CCC)C(=O)O    13.8
Cc1cc(C)c(NC(=O)CN(CC(=O)O)CC(=O)O)c(C)c1Br    -1.32
Nc1cc(C(Cl)=C(Cl)Cl)c(S(N)(=O)=O)cc1S(N)(=O)=O    -0.745
c1ccc(SCCSc2ccccc2)cc1    6.54

[Q] Give me measured max response, please, for this molecule: `CC(C)CCOC(=O)CC(C)C`
[A] 14.4

[Q] In one line, give reported max response of the entry `NC(N)=NS(=O)(=O)c1ccc(N)cc1` .
[A] -4.08

[Q] Give the reported value of max response for this record: C=C(C)C(=O)OCCC(C)OC(=O)C(=C)C (centres undefined)
[A] 8.52

[Q] Supply reported max response belonging to this molecule: `C=CCOc1nc(OCC=C)nc(OCC=C)n1`
[A] 11.1

---

Assayed System: Estrogen receptor (Homo sapiens)
Experimental Protocol: qHTS assay to identify small molecule antagonists of the estrogen receptor alpha (ER-alpha) signaling pathway using the BG1 cell line in the presence of 0.1 nM 17-beta-estradiol (AID 1259244); note: % is set by controls: 0 for no effect and ±100 for the full control effect; nearly all actives have a fitted effect of over 50% in size
Assay Context: VM7Luc4E2 (BG1) ERE-luciferase, antagonist mode, 0.1 nM E2, 22 h; series mostly up to 92.4 µM
Inconclusive results are not listed. The source made the active and inactive calls. Calls come from the whole dose curve; as a rule, active = well fitted inhibition curve with a large enough effect in the repeat runs; inconclusive = weak or mixed curves; inactive = no such curve, though single readings can be large or run the other way.
Assay Endpoint: activity change, negative = inhibition

Completed entries (count: 5):
COC(=O)CCCC(=O)O    inactive
Cc1nc(-c2ccc(OCC(C)C)c(C#N)c2)sc1C(=O)O    inactive
CNc1ncnc2nc[nH]c12    inactive
CCC(=O)/C=C/c1ccc(OC)cc1    inactive
CCc1cc(S(=O)(=O)O)c2cc(C(C)C)cccc1-2    inactive

[Q] Please look at this compound and report its activity change, negative = inhibition: `CC1(C)SC(C)(C)SC(C)(C)S1`
[A] inactive

[Q] Assign activity change, negative = inhibition to the following record: `NC(N)=NS(=O)(=O)c1ccc(N)cc1`
[A] inactive

---

Quick reference for max response among some molecules
Experimental Protocol: qHTS RealTime-Glo MT Cell Viability Assay in HEK293 cells - 40 hour (AID 1224874); note: % is set by controls: 0 for no effect and ±100 for the full control effect; nearly all actives have a fitted effect of over 50% in size
Assay Context: RealTime-Glo luminescence; hits give low values
Inconclusive results are not listed.
Give the value in % but do not write % after it.

NS(=O)(=O)c1cc2c(cc1Cl)NC(CSCc1ccccc1)=NS2(=O)=O    -0.803

[Q] Read off the recorded max response for CCC(C(=O)NC(N)=O)c1ccccc1 (configuration not stated)
[A] 5.63

[Q] Supply max response value. Item: CC(C)[N+](C)(C)CC(O)COc1cccc2ccccc12 (configuration not stated)
[A] 6.37

---

Assayed System: Thyrotropin-releasing hormone receptor (Homo sapiens)
Experimental Protocol: qHTS assay to identify small molecule agonists of the thyrotropin-releasing hormone receptor (TRHR) signaling pathway (AID 1346891);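 note: HEK293 cells expressing TRHR with calcium dye readout; % is set by controls: 0 for no effect and ±100 for the full control effect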
Assay Context: TRHR-HEK293 calcium fluorescence, agonist mode; series mostly up to 57.6 µM
Active and inactive are the calls of the source. The call rests on the fitted dose curve.
Assay Endpoint: activation

In the examples that follow, each entry is paired with its recorded activation.
CCCCCCOC(=O)c1ccccc1O    inactive
Cc1ccc(N)cc1[N+](=O)[O-]    inactive
O=[N+]([O-])c1ccc(CCO)cc1    inactive
CC(=O)OC(C)(C)C    inactive

[Q] Give measured activation for CN(C)CCOC(c1ccc(Cl)cc1)c1ccccn1 (stereo not drawn) (Thyrotropin-releasing hormone receptor (Homo sapiens)).
[A] inactive

[Q] Report the value of activation obtained on Thyrotropin-releasing hormone receptor (Homo sapiens) for `CCCCCCC(=O)OCC` .
[A] inactive

[Q] Print Thyrotropin-releasing hormone receptor (Homo sapiens) activation for `COc1nc(C)nc(N)n1` .
[A] inactive

[Q] Recall the reported activation of `C[C@H]1O[C@@H](n2cc(F)c(=O)[nH]c2=O)[C@H](O)[C@@H]1O` when tested on Thyrotropin-releasing hormone receptor (Homo sapiens).
[A] inactive

[Q] Under Thyrotropin-releasing hormone receptor (Homo sapiens), report activation for `c1ccc2cnncc2c1`
[A] inactive

[Q] Report activation under test system Thyrotropin-releasing hormone receptor (Homo sapiens) for `CCn1c(=O)c2c(nc(/C=C/c3ccc(OC)c(OC)c3)n2C)n(CC)c1=O` .
[A] inactive

[Q] Find the measured activation of `CCN(CC)S(=O)(=O)c1ccc(C(=O)O)cc1` with Thyrotropin-releasing hormone receptor (Homo sapiens) as test system.
[A] inactive

[Q] Find the measured activation of O=C1C(CCS(=O)c2ccccc2)C(=O)N(c2ccccc2)N1c1ccccc1 (stereo not drawn) with Thyrotropin-releasing hormone receptor (Homo sapiens) as test system.
[A] inactive

[Q] Please look at `Nc1cc(C(Cl)=C(Cl)Cl)c(S(N)(=O)=O)cc1S(N)(=O)=O` and tell me its recorded activation on Thyrotropin-releasing hormone receptor (Homo sapiens).
[A] inactive

---

Assayed System: Nuclear receptor subfamily 1 group I member 2 (Homo sapiens) (UniProt O75469)
Experimental Protocol: Human pregnane X receptor (PXR) activation by small molecules, qHTS assay (AID 1346985); note: nearly all actives have a fitted effect of over 40% in size; for activation: % is set by controls: 0 for no effect and ±100 for the full control effect
Assay Context: DPX-2 HepG2 CYP3A4-luciferase, 24 h; series mostly up to 38.3 µM
Inconclusive results are not listed. Activity calls are given as the source filed them. Calls follow the shape of the dose curve; as a rule, active = well fitted activation curve with a large enough effect in the repeat runs; inconclusive = weak or mixed curves; inactive = flat fitted curve, though single readings scatter.
Could you please pick one outcome from this set? label 1 = active, label 0 = inactive

Some solved entries appear below for comparison.
[O-][N+](=Nc1ccccc1)c1ccccc1    label 0
NC(=O)c1ncn([C@@H]2O[C@H](CO)[C@@H](O)[C@H]2O)c1N    label 0
CC(C)[C@H](N)C(=O)OCCOCn1cnc2c(=O)[nH]c(N)nc21    label 0

[Q] Hi, sorry to bother you, what did the test record for `Nc1cc(C(Cl)=C(Cl)Cl)c(S(N)(=O)=O)cc1S(N)(=O)=O` ?
[A] label 0

[Q] Could you please tell me the result logged for `C=CCn1c(=O)n([C@@H]2O[C@H](CO)[C@@H](O)[C@H]2O)c2nc(N)[nH]c(=O)c21` in this assay?
[A] label 0

[Q] Dear all, I need the recorded test outcome for `Cn1ccc2cc3c(cc21)CCN3C(=O)Nc1cccnc1` , thank you.
[A] label 1

[Q] Test call for this compound, please: `CCn1cc(C(=O)O)c(=O)c2cc(F)c(N3CCN(C)CC3)cc21`
[A] label 0

[Q] Hi, sorry to bother you, what did the test record for `O=C(O)CCNC(=O)c1ccc(N=Nc2ccc(O)c(C(=O)O)c2)cc1` ?
[A] label 0
